From: PubChem BioAssay AID1626

// inhibition lookup, one value per entry
Experiment: M. tuberculosis H37Rv growth inhibitors, H37Rv strain (AID 1626);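 also: bacteria incubated seven days before Alamar blue readout; 0% = bacteria only wells and 100% = bacteria with antibiotic wells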
Conditions: hits give high values, concentration not given here
About 2,000 (0.91%) of roughly 220,000 compounds were called active. Roughly 2% stayed inconclusive and do not appear here. A selection follows. Potency and affinity values are given separately.
Give the quantity in %, number only.

The following compounds have reported results that may help.
* Cc1ccc(SC(C)c2nc(-c3ccncc3)no2)cc1 (stereo not given) | 3.66
* Cc1nn(-c2ccccc2)c(N)c1C(c1ccccc1)c1c(C)nn(-c2ccccc2)c1N | 9.35

Record "O=C(/C=C/c1ccc(F)cc1)N1CCCN(C(=O)/C=C/c2ccc(F)cc2)CC1" , field inhibition: 10.8

Record summary for "Cc1scc(C(=O)N/N=C/c2ccc(OCC(C)C)cc2)c1C" : reported inhibition = 6.9

Consider "COC(=O)/C(=N/Nc1ccccc1)N1CCCc2ccccc21" . Its measured inhibition is 38.7

GET /value?item= "CN1CCC(N(C)CC(=O)Nc2ccccc2N2CCOCC2)CC1" &field=inhibition returns 13.7

For record "CC1(C)Cc2ccccc2C(N/N=C/c2ccc([N+](=O)[O-])cc2)=N1" the listed inhibition is 3.59

====

Assay: M. tuberculosis H37Rv growth inhibitors, H37Rv strain (AID 1626);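 also: bacteria incubated seven days before Alamar blue readout; 0% = bacteria only wells and 100% = bacteria with antibiotic wells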
Settings: hits give high values, concentration not given here
Out of some 220,000 compounds screened, about 2,000 (0.91%) were called active. Inconclusive results (about 2%) are left out. The list is a sample of the results. Entries with a potency or affinity are not part of this list.
Catalogue of compounds with associated inhibition
Report the value in % with no unit label.

Example cases with answers are listed next.
• CC(=O)c1ccc(-c2ccc(C(=O)N3CCCc4ccccc43)o2)cc1 = 17.9
• Cc1ccc(-c2csc3nc(-c4ccncc4)[nH]c(=O)c23)cc1 = 3.27
• COc1ccc(NC(=O)CNc2cccc(C#N)c2)cc1Cl = -9.7

For reference, reported inhibition for "COc1ccccc1NC(=O)CNc1ccc(F)c(Cl)c1" stands at -4.82

# inhibition (compound: "N#C/C(=N\Nc1c(Cl)cccc1Cl)C(=O)NN" ) is 0.65

# inhibition (compound: "CC(=O)c1ccc(N2CCN(C(=O)C3(S(=O)(=O)c4ccc(Cl)cc4)CC3)CC2)cc1" ) is 1.33

====

Assay: M. tuberculosis H37Rv growth inhibitors, H37Rv strain (AID 1626);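 also: bacteria incubated seven days before Alamar blue readout; 0% = bacteria only wells and 100% = bacteria with antibiotic wells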
Details: hits give high values, concentration not given here
In all, about 220,000 compounds went through this assay and about 2,000 (0.91%) were called active. Roughly 2% stayed inconclusive and do not appear here. Not all results are given here. Entries with a potency or affinity are not part of this list.
Let's look at some compounds and their measured inhibition.
// note: answer is a bare numeric in %

Known results for compounds:
* O=[N+]([O-])c1cccc(-c2noc(-c3cccs3)n2)c1 | 0.93
* CCOc1ncccc1C(=O)OCc1ccc(C#N)cc1 | 4.57

Lab note: measured inhibition of "c1ccc(OCc2nn3c(-c4ccccn4)nnc3s2)cc1" was -10.6

Kindly note the recorded inhibition for "CC(C)NC(=O)C(=O)NC1CCCCCC1" , which is -2.43

Record "c1coc(-c2nnc3sc(Cc4cccs4)nn23)c1" , field inhibition: -0.74

// inhibition lookup, compound = "Cc1cc(NC(=O)COC(=O)c2ccc(S(=O)(=O)N3CCCC3)cc2)no1" , result: 5.16

Briefly, inhibition measured for O=C1c2ccccc2C(Nc2ccc(S(=O)(=O)N3CCOCC3)cc2)N1Cc1ccco1 (stereo not drawn) : -2.41

// recorded inhibition for "CCN(CC(=O)Nc1ccc(NC(C)=O)cc1)C(=O)/C=C/c1cccs1" : -2.91

compound CCCCOc1nc2ccccc2nc1C(C#N)S(=O)(=O)c1ccccc1 (stereo not drawn) , inhibition observed: -4.72

Reported inhibition for "CCOc1ccc(Cc2noc3c2C(=O)CC(C)(C)C3)cc1OCC" was 5.77

Recorded result, "O=C(CN1C(=O)CCC1=O)Nc1nc(-c2ccccn2)cs1" , inhibition: 2.51

Looking up "CCN(CC)S(=O)(=O)c1cccc(C(=O)N/N=C2\CCCC(=O)C2)c1" , I found its inhibition recorded as -9.95

inhibition reported for this compound "COc1ccc(/C=C/C(=O)O)cc1OC" : -4.92

inhibition reported for this compound "CCCCc1n[nH]c(=S)n1Cc1ccccc1" : -1.46

The compound "O=C(Nc1nccs1)C12CC3CC(C1)CC(C(=O)Nc1nccs1)(C3)C2" showed inhibition equal to 1.25

Looking up "C=CCn1c(=O)c2ccccc2n2c(SCC(=O)c3ccccc3)nnc12" , I found its inhibition recorded as 6.67
